Provenance of the data: patent US20240325394A1

Test: Pharmacokinetics in MiaPaca 2 tumor-bearing mice (plasma, tumor tissue)
Format: in vivo
Conditions: female, mouse, po; Tumor, p.o. 6 mg/kg
ASSAY ENDPOINT: MRT (min)
Answers are plain numbers, in min.

Exercise: Tell me the measured MRT of C=CC(=O)N1CCN(c2nc(=O)n(-c3c(C)ccnc3C(C)C)c3nc(-c4c(O)cccc4F)c(F)cc23)[C@@H](C)C1 [AMG 510, reference compound] , please.
Solution: 42

----------
Assay: Pharmacokinetics in MiaPaca 2 tumor-bearing mice (plasma, tumor tissue)
Type: in vivo
Settings: female, mouse, po; Plasma, p.o. 6 mg/kg
For each record, write down the corresponding half-life.
One number for each entry, in min.

[[record]]
compound = "C=CC(=O)N1CCN(c2nc(=O)n(-c3c(C)ccnc3C(C)C)c3nc(-c4c(O)cccc4F)c(F)cc23)[C@@H](C)C1 [AMG 510, reference compound]"
uom = "min"
number = 18


Exercise: // query half-life value for entry C=CC(=O)N1C[C@H](C)N(c2nc(=O)n(-c3c(SC)ccnc3C(C)C)c3nc(-c4c(N)ccc(Cl)c4F)c(Cl)cc23)C[C@H]1C (atropisomer, axis not shown)
Solution: 30

----------
Task for the reader: assign each of the following molecules its reported Residual rate (%) 120 min.
Test: Plasma stability, rat plasma
Type: in vitro ADME
Details: rat plasma, 37° C., 120 min
One number for each entry, in %.

Worked examples, 3 molecules total:
[[record]]
molecule = "CC[C@H](C)C(=O)O[C@H]1C[C@@H](C)C=C2C=C[C@H](C)[C@H](CC[C@@H]3C[C@@H](O)CC(=O)O3)[C@H]21 [Lovastatin, reference compound]"
assay_endpoint = "Residual rate (%) 120 min"
number = 0.30

[[record]]
molecule = "C=CC(=O)N1C[C@H](C)N(c2nc(=O)n(-c3c(SC)ccnc3C(C)C)c3nc(-c4c(N)ccc(Cl)c4F)c(Cl)cc23)C[C@H]1C (atropisomer, axis not shown)"
assay_endpoint = "Residual rate (%) 120 min"
number = 91.93

[[record]]
molecule = "C=CC(=O)N1CCN(c2nc(=O)n(-c3c(C)ccnc3C(C)C)c3nc(-c4c(O)cccc4F)c(F)cc23)[C@@H](C)C1 [AMG 510, reference compound]"
assay_endpoint = "Residual rate (%) 120 min"
number = 56.77


Next item in the queue.
Exercise: Would you kindly share the measured Residual rate (%) 120 min for C=CC(=O)N1C[C@H](C)N(c2nc(=O)n(-c3c(SC)ccnc3C(C)C)c3nc(-c4c(O)cccc4F)c(Cl)cc23)C[C@H]1C (atropisomer, axis not shown) ?
Solution: 96.46

----------
Assay: Plasma stability, human plasma
Type: in vitro ADME
Conditions: human, 30 min, 0.5 μM
Provide the reported Residual rate (%) 30 min of each item.
Answers are plain numbers, in %.

[[record]]
compound = "C=CC(=O)N1C[C@H](C)N(c2nc(=O)n(-c3c(SC)ccnc3C(C)C)c3nc(-c4c(N)ccc(Cl)c4F)c(Cl)cc23)C[C@H]1C (atropisomer, axis not shown)"
uom = "%"
number = 100.28

[[record]]
compound = "C=CC(=O)N1CCN(c2nc(=O)n(-c3c(C)ccnc3C(C)C)c3nc(-c4c(O)cccc4F)c(F)cc23)[C@@H](C)C1 [AMG 510, reference compound]"
uom = "%"
number = 85.72

[[record]]
compound = "CC(C)[N+](C)(CCOC(=O)C1c2ccccc2Oc2ccccc21)C(C)C [Propantheline, reference compound]"
uom = "%"
number = 50.52


// next item, Residual rate (%) 30 min requested
Exercise: Item under review: C=CC(=O)N1C[C@H](C)N(c2nc(=O)n(-c3c(SC)ccnc3C(C)C)c3nc(-c4c(O)cccc4F)c(Cl)cc23)C[C@H]1C (atropisomer, axis not shown) . Reported Residual rate (%) 30 min?
Solution: 94.74
